- Test system: HCT-116 cells
- assay-remarks: Inhibition test for sphere-forming ability of cancer cells in the presence of BSA (Test Example 2), HCT-116
- Type: cell-based, human
- assay-conditions: HCT-116 cells, in the presence of 5% BSA, cultured 4 days
property-measured: IC50 (µM)

O=C(Nc1ccc2c(O)cccc2c1)c1cn(Cc2cccc(Cl)c2)cn1 [Example 256]; 6.17
COc1ccc(C(=O)Nc2cn(Cc3ccc(F)c(F)c3F)cn2)cc1OC [Example 153]; 6.39
COc1ccc(C(=O)Nc2cn(Cc3ccc(F)cc3)cn2)cc1OC [Example 146]; 6.02

###

- Tested on: FaDu cells
- assay-remarks: Inhibition test for sphere-forming ability of cancer cells (Test Example 1), FaDu
- Type: cell-based, human
- assay-conditions: 1 μmol/L, value with %
property-measured: (100%-inhibition rate of cell proliferation) at 1 μmol/L, FaDu (%)
Express your answer in %, writing the number without its unit.

Reference set (5 entries):
COc1ccc(C(=O)Nc2cn(Cc3cccc(C)c3)cn2)cc1OC; 37.8
COc1ccc(C(=O)Nc2cn(Cc3ccc(C)c(Cl)c3)cn2)cc1OC; 31.8
Cc1ccc(C(=O)Nc2cn(Cc3cccc(Cl)c3)cn2)cn1; 64.5
COc1ccc(C(=O)Nc2cn(Cc3cccc(C(F)(F)F)c3)cn2)cc1OC; 24.1
COc1ccc(C(=O)Nc2cn(Cc3ccc(C(C)C)cc3)cn2)cc1OC; 32.3

Problem: Give recorded (100%-inhibition rate of cell proliferation) at 1 μmol/L, FaDu with FaDu cells for the following compound: COc1ccc(C(=O)Nc2cn(Cc3ccc4c(c3)C(C)(C)CCC4(C)C)cn2)cc1OC
Solution: 42.3

Problem: Give recorded (100%-inhibition rate of cell proliferation) at 1 μmol/L, FaDu with FaDu cells for the following compound: COc1ccc(C(=O)Nc2cn(Cc3cccc(OC(F)(F)F)c3)cn2)cc1OC
Solution: 23.8
